system_name: recombinant human PIM1 (Homo sapiens (Human), UniProt P11309)
Sequence (P11309 whole entry): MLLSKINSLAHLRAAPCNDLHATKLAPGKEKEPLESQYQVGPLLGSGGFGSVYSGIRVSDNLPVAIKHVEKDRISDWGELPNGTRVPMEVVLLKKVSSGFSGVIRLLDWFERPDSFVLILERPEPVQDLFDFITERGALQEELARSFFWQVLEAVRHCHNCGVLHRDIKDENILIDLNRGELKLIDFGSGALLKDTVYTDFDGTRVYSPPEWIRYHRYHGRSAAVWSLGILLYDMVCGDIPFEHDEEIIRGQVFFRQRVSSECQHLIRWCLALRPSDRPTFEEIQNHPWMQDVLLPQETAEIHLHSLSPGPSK
protocol_description: PIM-1 kinase activity in cell-free in vitro assay
Assay type: biochemical
settings: 500 nM compound, cell-free assay; read-out: PIM-1: % inh 500 nM
Would you please tag the item condition met when its inhibition at 0.5 µM is 20% or above, and condition not met when it is below?

compound	category_label
O=C(O)c1ccc2c(c1)nc(NC1CC1)c1nc(NCc3ccccc3)ncc12 [drawing 1617]	condition met
c1cc2c(NCCN3CCCCC3)nc3cc(-c4nnn[nH]4)ccc3c2s1	condition met
CNc1ccc(C#N)cc1Nc1nc2cc(C(=O)O)ccc2c2cnccc12	condition not met
O=C(O)c1ccc2c(c1)nc(NC1CC1)c1nc(NCCCO)ncc12	condition not met
COC(=O)c1ccc2c(c1)nc(NC1CC1)c1nc(C#N)ncc12	condition not met

Q: API: above_or_equal(metric=inhibition at 0.5 µM, cutoff=20%) for item "NC(=O)c1cccc(Nc2nc3cc(C(=O)O)ccc3c3cnccc23)c1"
Result: condition met

Q: API: above_or_equal(metric=inhibition at 0.5 µM, cutoff=20%) for item "CCOCCNc1ncc2c(n1)c(N(C)c1ccccc1)nc1cc(C(=O)O)ccc12"
Result: condition met

Q: API: above_or_equal(metric=inhibition at 0.5 µM, cutoff=20%) for item "NC(=O)c1ccc2c(c1)nc(NC1CC1)c1nc(NC3CC3)ncc12"
Result: condition not met

Q: API: above_or_equal(metric=inhibition at 0.5 µM, cutoff=20%) for item "COCCNC(=O)c1ccc2c(c1)nc(NCCN(C)C)c1ccsc12"
Result: condition not met

Q: API: above_or_equal(metric=inhibition at 0.5 µM, cutoff=20%) for item "Clc1cccc(Nc2nc3cc(-c4nnn[nH]4)ccc3c3cscc23)c1"
Result: condition not met

The reported measurements were obtained from patent US8168651B2.
